Consider the following compounds and their measured melting point readings.

[[record]]
compound = "COC(=O)c1cc2ccc(OCCN(C)C(=O)OC(C)(C)C)cc2oc1=O [Compound 15]"
observedresult = "128 to 129 °C"


Find the recorded melting point belonging to COC(=O)c1cc2ccc(OCc3ccccc3)cc2oc1=O [Compound 1] and report it.
129 to 130 °C

Name the reported melting point value associated with the compound COC(=O)C1Cc2ccc(OCCN(C)c3nc4ccccc4o3)cc2OC1=O (stereo not shown) [Compound 16]
88 to 90 °C

Which melting point is reported for this compound? COC(=O)c1cc2ccc(OCCc3ccccc3)cc2oc1=O [Compound 3]
100 to 101 °C
